Overview of reported DOR EC50 across a group of binders:
TARGET_OF_ASSAY: δ-opioid receptor (DOR), Human-ORPD1 (human, UniProt P41143 1-372)
Sequence (P41143 whole entry, stated change not applied): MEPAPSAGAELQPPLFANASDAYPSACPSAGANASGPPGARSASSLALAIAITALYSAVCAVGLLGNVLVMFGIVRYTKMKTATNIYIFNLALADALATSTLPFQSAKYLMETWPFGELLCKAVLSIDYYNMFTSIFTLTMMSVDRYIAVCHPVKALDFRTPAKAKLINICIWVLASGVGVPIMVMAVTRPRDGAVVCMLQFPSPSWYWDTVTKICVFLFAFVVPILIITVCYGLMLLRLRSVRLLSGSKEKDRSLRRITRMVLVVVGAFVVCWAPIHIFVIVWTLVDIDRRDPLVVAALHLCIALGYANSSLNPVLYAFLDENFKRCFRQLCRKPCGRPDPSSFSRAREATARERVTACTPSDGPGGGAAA
TEST_PROTOCOL: cell-based or functional assay
Square brackets hold non-standard residues; d marks the D form. Phe(2,6-Me2,4-CONH2) = Cc1cc(C(N)=O)cc(C)c1C[C@H](N)C(=O)O; Bip = N[C@@H](Cc1ccc(-c2ccccc2)cc1)C(=O)O; Dip = N[C@H](C(=O)O)C(c1ccccc1)c1ccccc1; Phe(4-F) = N[C@@H](Cc1ccc(F)cc1)C(=O)O; Dmt = Cc1cc(O)cc(C)c1C[C@H](N)C(=O)O; Tic = O=C(O)[C@@H]1Cc2ccccc2CN1; β3hF = N[C@H](CC(=O)O)Cc1ccccc1; N(octyl)Gly = CCCCCCCCNCC(=O)O; Sar = CNCC(=O)O

// below: answered binders
| BINDER | RESULT |
| --- | --- |
| H-[Phe(2,6-Me2,4-CONH2)][dT]G[β3hF][Sar]-NH2 (SMILES Cc1cc(C(N)=O)cc(C)c1C[C@H](N)C(=O)N[C@@H](C(=O)NCC(=O)N[C@H](CC(=O)N(C)CC(N)=O)Cc1ccccc1)[C@H](C)O) [H-Phe(DMC)-(D)Thr-G-bhF-Sar-NH2] | ≤ 1 nM |
| H-[Dmt][dR]F[N(octyl)Gly]-NH2 (SMILES CCCCCCCCN(CC(N)=O)C(=O)[C@H](Cc1ccccc1)NC(=O)[C@@H](CCCNC(=N)N)NC(=O)[C@@H](N)Cc1c(C)cc(O)cc1C) [H-DMT-r-F-Octyl Gly-NH2] | ≤ 200 nM |
| H-[Dmt][dR][Phe(4-F)][Sar]-NH2 (SMILES Cc1cc(O)cc(C)c1C[C@H](N)C(=O)N[C@H](CCCNC(=N)N)C(=O)N[C@@H](Cc1ccc(F)cc1)C(=O)N(C)CC(N)=O) [H-DMT-r-Phe(4-F)-Sar-NH2] | ≤ 10 nM |
| H-[Dmt][dR]F[Dip]-NH2 (SMILES Cc1cc(O)cc(C)c1C[C@H](N)C(=O)N[C@H](CCCNC(=N)N)C(=O)N[C@@H](Cc1ccccc1)C(=O)N[C@H](C(N)=O)C(c1ccccc1)c1ccccc1) [H-DMT-r-F-DPA-NH2] | ≤ 50 nM |
| H-[Dmt][dR][Tic][Sar]-NH2 (SMILES Cc1cc(O)cc(C)c1C[C@H](N)C(=O)N[C@H](CCCNC(=N)N)C(=O)N1Cc2ccccc2C[C@H]1C(=O)N(C)CC(N)=O) [H-DMT-r-Tic-Sar-NH2] | > 200 nM |

Record H-[Dmt][dR][Bip]K-NH2 (SMILES Cc1cc(O)cc(C)c1C[C@H](N)C(=O)N[C@H](CCCNC(=N)N)C(=O)N[C@@H](Cc1ccc(-c2ccccc2)cc1)C(=O)N[C@@H](CCCCN)C(N)=O) [H-DMT-r-Bip-K-NH2] , field DOR EC50: > 200 nM

Per the record, H-[Dmt][Tic]G[β3hF][Sar]-NH2 (SMILES Cc1cc(O)cc(C)c1C[C@H](N)C(=O)N1Cc2ccccc2C[C@H]1C(=O)NCC(=O)N[C@H](CC(=O)N(C)CC(N)=O)Cc1ccccc1) [H-DMT-Tic-G-bhF-Sar-NH2] has DOR EC50 of ≤ 200 nM
